- Test system: HT29 colon
- Test Details: NCI-60 one-dose screen, 48 h (100 = growth as untreated, 0 = no growth, -100 = all killed)
- Condition Label: 10 µM unless noted
This is part of a sample that, as a whole, favours compounds with a hit. Of some 83,000 tested, about 20% had one in any assay.
Labelling field: enter yes (1) if recorded growth is less than 50%. Enter no (0) if it equals or exceeds that cut-off.

For orientation, consider the following solved cases.
{"Compound": "COC(=O)c1c2c(c(C)[n+]([O-])c1C)C(=O)C=C(NCc1ccccc1)C2=O", "Class Label": "yes (1)"}
{"Compound": "Cc1c(-c2csc(-n3nc(C(F)(F)F)cc3C(F)(F)F)n2)no[n+]1[O-]", "Class Label": "no (0)"}
{"Compound": "Nc1ccc(-c2nn3c(CCC(=O)c4nc5ncccc5[nH]4)nnc3s2)c(O)c1", "Class Label": "no (0)"}
{"Compound": "Nc1nc2c(ncn2[C@@H]2O[C@H](CS)[C@@H](O)[C@H]2O)c(=O)[nH]1", "Class Label": "no (0)"}
{"Compound": "O=c1oc2ccc(-c3ccc(F)cc3F)cc2c(=O)n1-c1cccc(C(F)(F)F)c1", "Class Label": "yes (1)"}

Q) Is the reported growth for COc1ccc(Nc2nc(N/N=C/c3ccc(O)cc3)nc(Nc3ccc([N+](=O)[O-])cc3)n2)cc1 strictly below 50%?
A) no (0)

Q) Next compound: Cn1c(C(=O)c2cccc3ccccc23)nc2ccccc21
A) yes (1)

Q) Next compound: O=c1c(-c2nc3ccccc3[nH]2)cc2ccccc2n1Cc1cn(Cc2ccccc2Cl)nn1
A) yes (1)

Q) Next compound: O=C(N=Nc1c(O)[nH]c2ccccc12)c1oc2ccccc2c1CN1CCN(c2ccccc2)CC1
A) yes (1)

Q) Next compound: COc1ccc(-c2nnc(COc3ccc(C(=O)/C=C/c4ccco4)cc3)o2)cc1
A) yes (1)

* * *

- System: IGROV1 ovarian
- Test Details: NCI-60 one-dose screen, 48 h
- Condition Label: 10 µM unless noted
- Protocol: Growth inhibition of the IGROV1 human tumor cell line is measured as a screen for anti-cancer activity. Cells are grown in 96 well plates and exposed to the test compound for 48 hours. Compounds are tested at a single concentration, which is 10^-5 M for most compounds. The reported endpoint is percent growth (GI% or GIPRCNT), where numbers from 0 - 100% represent growth inhibition, and numbers from -100% - 0 represent cell death. For example, a value of 40 represents 60% growth inhibition. […]
The panel holds about 83,000 compounds, 20% with a hit somewhere; the sample as a whole holds those more often. The source made the active and inactive calls. How the source made its calls: active means growth percent below 10; inactive means the rest.
The reply should be one of these categories: class 1 for active, class 0 for inactive

{"Compound": "COc1ccc(/C=C2\\CCC/C(=C\\c3ccc(OC)c(OC)c3)C2=O)cc1OC", "Class Label": "class 1"}

Turning now to a further compound:
Q) Short answer needed: outcome of this test for CCOC(=O)C1=CN(C)C=C(C(=O)OCC)C1c1cc(Br)c(OCC)c(OC)c1 ?
A) class 0

* * *

Reported values of growth for individual entries
- Tested on: NCI-H23 lung
- Test Details: NCI-60 one-dose screen, 48 h (100 = growth as untreated, 0 = no growth, -100 = all killed)
- Condition Label: 10 µM unless noted
This is part of a sample that, as a whole, favours compounds with a hit. Of some 83,000 tested, about 20% had one in any assay.
The figure you give is taken to be in %; do not add the unit.

{"Compound": "Cn1c(C(=O)c2cccc3ccccc23)nc2ccccc21", "Numeric Value": 19.4}
{"Compound": "CCOC(=O)C1(C(=O)OCC)N=C(c2ccccc2)C=C1c1ccccc1", "Numeric Value": 86.4}
{"Compound": "COc1cc(/C=C/C(=O)N2c3ccccc3CC2C)c(OC)c2c1OCO2 (centres undefined)", "Numeric Value": 90.8}
{"Compound": "COc1ccc(-c2nc(-c3ccccc3)c(-c3ccccc3)[nH]2)cc1OC1CCCCC1", "Numeric Value": 89}
{"Compound": "O=C(O)c1cn(C2CC2)c2cc(N3CCN(C(=O)C[n+]4ccccc4)CC3)c(F)cc2c1=O", "Numeric Value": 104}

Q) Record request: growth value, item Cc1ccc(C2CC(c3ccc(Nc4nc(NCCO)nc(Nc5ccc(Cl)cc5)n4)cc3)=NN2c2cc(Cl)cc(Cl)c2)cc1 (centres undefined)
A) 92.5

* * *

- Test system: SK-MEL-5 melanoma
- Test Details: NCI-60 one-dose screen, 48 h (100 = growth as untreated, 0 = no growth, -100 = all killed)
- Condition Label: 10 µM unless noted
- Method: Growth inhibition of the SK-MEL-5 human tumor cell line is measured as a screen for anti-cancer activity. Cells are grown in 96 well plates and exposed to the test compound for 48 hours. Compounds are tested at a single concentration, which is 10^-5 M for most compounds. The reported endpoint is percent growth (GI% or GIPRCNT), where numbers from 0 - 100% represent growth inhibition, and numbers from -100% - 0 represent cell death. For example, a value of 40 represents 60% growth inhibition. […]
Compounds without any hit were thinned out: in the full panel of roughly 83,000, 20% have a hit. Activity calls are given as the source filed them. Rule for the calls: active = growth percent below 10; inactive = the rest.
Endpoint Name: growth

{"Molecule": "Cc1nc2ccccc2c(/C=C/c2ccccc2)c1C(=O)/C=C/c1ccc(Cl)cc1", "growth": "32.4% (inactive)"}

Q) Record request: growth value, item O=S1(=O)N(Cc2ccccc2)[C@@H](Cc2ccccc2)[C@H](O)[C@H](O)[C@H](Cc2ccccc2)N1Cc1ccccc1
A) -1.02% (active)

Q) Next molecule: O=C(c1nc2ccccc2[nH]1)C1C(c2cccc([N+](=O)[O-])c2)C2CC3CCCCC3N2[C@@]12C(=O)Nc1cc(Cl)ccc12 (stereo partly specified)
A) 45.4% (inactive)

* * *

- System: MALME-3M melanoma
- Test Details: NCI-60 one-dose screen, 48 h (100 = growth as untreated, 0 = no growth, -100 = all killed)
- Condition Label: 10 µM unless noted
- Protocol: Cells are grown in 96 well plates and exposed to the test compound for 48 hours. Compounds are tested at a single concentration, which is 10^-5 M for most compounds. The reported endpoint is percent growth (GI% or GIPRCNT), where numbers from 0 - 100% represent growth inhibition, and numbers from -100% - 0 represent cell death. For example, a value of 40 represents 60% growth inhibition. A value of 0 means no net growth occurred over the course of the experiment. […]
Compounds without any hit were thinned out: in the full panel of roughly 83,000, 20% have a hit.
Endpoint Name: growth (%)
The figure you give is taken to be in %; do not add the unit.

// below: answered molecules
{"Molecule": "Cn1c(/C=C(\\C#N)c2cccc(C(F)(F)F)c2)nc2c(N3CCOCC3)nc(Cl)nc21", "Numeric Value": -21.8}
{"Molecule": "O=c1oc2ccc(I)cc2c(=O)n1-c1ccc(F)cc1F", "Numeric Value": -21}
{"Molecule": "CCOC(=O)c1cc2c(n1Cc1ccccc1OC)-c1oncc1CCC2", "Numeric Value": 20.7}
{"Molecule": "CC(=O)c1ccc(NC(=O)Nc2ccc(S(=O)(=O)Nc3ccc(Cl)nn3)cc2)cc1", "Numeric Value": 100}
{"Molecule": "COc1cc([C@@H]2NC(=O)NC(C)=C2C(=O)Nc2nc(-c3ccc(Cl)cc3)cs2)ccc1O", "Numeric Value": 95.4}

Q) Record request: growth value, item COc1ccc(-c2nsc3c2NC(=O)CC3c2ccsc2)cc1 (stereo not given)
A) 43.6

Q) Next molecule: COc1ccc(/C=C2\N=C(c3ccccc3)N(c3ccc(-c4nc5ccc(C)cc5s4)cc3)C2=O)cc1
A) 94.6

Q) Next molecule: CN1C(=O)N(C)C2(c3ccccc3)OC(=S)NC12c1ccccc1 (stereo not given)
A) 97

Q) Next molecule: COc1nccc2cc3c(=O)n4c(cc5ccccc54)c(=O)n3c12
A) 85.7

Q) Next molecule: CN1CCN(c2nc(Nc3ccc(O)cc3)nc3ccccc23)CC1
A) 61.8

* * *

- System: NCI/ADR-RES ovarian
- Test Details: NCI-60 one-dose screen, 48 h (100 = growth as untreated, 0 = no growth, -100 = all killed)
- Condition Label: 10 µM unless noted
About 83,000 compounds went through this panel and 20% of them were active in at least one assay; those are over-represented in the sample as a whole.
Labelling field: enter criterion met if recorded growth is less than 30%. Enter criterion not met if it equals or exceeds that cut-off.

Q) Is the reported growth for CCN1C(=O)N(CC)C2C1NC(=S)N2/N=C/C=C/c1ccccc1OC (centres undefined) strictly below 30%?
A) criterion met

* * *

- System: NCI-H460 lung
- Test Details: NCI-60 one-dose screen, 48 h (100 = growth as untreated, 0 = no growth, -100 = all killed)
- Condition Label: 10 µM unless noted
This is part of a sample that, as a whole, favours compounds with a hit. Of some 83,000 tested, about 20% had one in any assay.
Labelling field: enter satisfied if recorded growth is less than 30%. Enter not satisfied if it equals or exceeds that cut-off.

Q) Is the reported growth for COc1ccc(Cn2cc(Cn3cc(C=C4C(=O)NC(=O)NC4=O)c4ccccc43)nn2)cc1 strictly below 30%?
A) not satisfied

Q) Next molecule: COc1ccc(-c2nsc3c2NC(=O)CC3c2cccc(OC)c2)cc1 (stereo not given)
A) satisfied

Q) Next molecule: CCOc1c(Br)cc(C2C(C(=O)OC)=CN(C)C=C2C(=O)OC)cc1OC
A) not satisfied

Reference source for all entries: PubChem BioAssay (NCI)
